- Tested on: CCRF-CEM
- assay_comment: Cytotoxicity against human CCRF-CEM cells
- Type: functional
Classify: Criterion met when GI50 is strictly less than 200 nM; Criterion not met when GI50 is not.

Worked examples follow.
[
  {
    "chemical_smiles": "COc1cc(/C=C/c2cc(O)c3c(C/C=C(\\C)CCC=C(C)C)c[nH]c3c2)cc2c1O[C@]1(C)CC[C@@H](O)C(C)(C)[C@H]1C2",
    "system_under_test": "CCRF-CEM",
    "class": "Criterion not met"
  },
  {
    "chemical_smiles": "COc1cc(/C=C/c2cc(O)c3c(CC=C(C)C)c[nH]c3c2)cc2c1O[C@]1(C)CC[C@@H](O)C(C)(C)[C@H]1C2",
    "system_under_test": "CCRF-CEM",
    "class": "Criterion met"
  },
  {
    "chemical_smiles": "COc1cc(/C=C/c2cc(OC)c3c(C/C=C(\\C)CCC=C(C)C)c[nH]c3c2)cc2c1O[C@]1(C)CC[C@@H](O)C(C)(C)[C@H]1C2",
    "system_under_test": "CCRF-CEM",
    "class": "Criterion not met"
  },
  {
    "chemical_smiles": "COc1cc(/C=C/c2cc(OC)c3c(CC=C(C)C)c[nH]c3c2)cc2c1O[C@]1(C)CC[C@@H](O)C(C)(C)[C@H]1C2",
    "system_under_test": "CCRF-CEM",
    "class": "Criterion not met"
  },
  {
    "chemical_smiles": "COc1cc(/C=C/c2cc(O)c3c(c2)C[C@@H]2C(C)(C)[C@H](O)CC[C@@]2(C)O3)cc2c1ccn2C",
    "system_under_test": "CCRF-CEM",
    "class": "Criterion met"
  },
  {
    "chemical_smiles": "COc1cc(/C=C/c2cc(O)c3c(c2)C[C@@H]2C(C)(C)[C@H](O)CC[C@@]2(C)O3)cc2[nH]cc(CC=C(C)C)c12",
    "system_under_test": "CCRF-CEM",
    "class": "Criterion met"
  }
]

Please find the next compound below.
Prompt line: Check if GI50 falls below 200 nM for COc1cc(/C=C/c2cc(O)c3cc[nH]c3c2)cc2c1O[C@]1(C)CC[C@@H](O)C(C)(C)[C@H]1C2 .
Response line: Criterion not met
